B1: tRNA (parent)
chain: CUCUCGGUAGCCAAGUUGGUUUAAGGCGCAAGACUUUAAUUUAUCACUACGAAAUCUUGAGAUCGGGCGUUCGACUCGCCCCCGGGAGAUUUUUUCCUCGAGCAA

variants of: B1; experiment: nonsense suppression (GFP-seq) (ratio to wild type); higher = more function; SUP4oc tRNA, yeast GFP reporter sort-seq
Variants at the floor of the assay were thinned out.
readout.type: nonsense suppression

mutation.string: G10C C77G
readout.type: nonsense suppression
modifier: ≤
readout.value: 0.026

mutation.string: C12A G32C U57G
readout.type: nonsense suppression
modifier: ≤
readout.value: 0.026

mutation.string: A9G U21C A60U
readout.type: nonsense suppression
modifier: ≤
readout.value: 0.026

mutation.string: U20C A89U
readout.type: nonsense suppression
modifier: =
readout.value: 0.0684

mutation.string: A31U C81A C82G
readout.type: nonsense suppression
modifier: ≤
readout.value: 0.026

mutation.string: U4A C79U
readout.type: nonsense suppression
modifier: =
readout.value: 0.0353

mutation.string: C81U G84U
readout.type: nonsense suppression
modifier: =
readout.value: 0.065

mutation.string: C11U U70G C79A
readout.type: nonsense suppression
modifier: ≤
readout.value: 0.026

mutation.string: U22C A60C G61A
readout.type: nonsense suppression
modifier: =
readout.value: 0.176

mutation.string: G6C U20G
readout.type: nonsense suppression
modifier: ≤
readout.value: 0.026

mutation.string: C11G U16G G66A
readout.type: nonsense suppression
modifier: ≤
readout.value: 0.026

mutation.string: U16A G18U A24C U58G
readout.type: nonsense suppression
modifier: ≤
readout.value: 0.026

mutation.string: C3U G26C G28A
readout.type: nonsense suppression
modifier: ≤
readout.value: 0.026

mutation.string: U57C A89G
readout.type: nonsense suppression
modifier: ≤
readout.value: 0.026

mutation.string: C1A G67C C72A
readout.type: nonsense suppression
modifier: ≤
readout.value: 0.026

mutation.string: U70C C75U
readout.type: nonsense suppression
modifier: ≤
readout.value: 0.026

mutation.string: A13G G85A
readout.type: nonsense suppression
modifier: =
readout.value: 0.214

mutation.string: G6U U16C U17C G19U
readout.type: nonsense suppression
modifier: ≤
readout.value: 0.026

mutation.string: G10U A14U
readout.type: nonsense suppression
modifier: =
readout.value: 0.19

mutation.string: C5U C68U
readout.type: nonsense suppression
modifier: ≤
readout.value: 0.026

mutation.string: C34A A87G
readout.type: nonsense suppression
modifier: ≤
readout.value: 0.026

mutation.string: G10A C56U G73A
readout.type: nonsense suppression
modifier: ≤
readout.value: 0.026

mutation.string: A60G G66U
readout.type: nonsense suppression
modifier: =
readout.value: 0.0286

mutation.string: G85U
readout.type: nonsense suppression
modifier: =
readout.value: 1.12

mutation.string: C72A G85C
readout.type: nonsense suppression
modifier: ≤
readout.value: 0.026

mutation.string: U4C A24G
readout.type: nonsense suppression
modifier: =
readout.value: 0.31

mutation.string: G78U G85C
readout.type: nonsense suppression
modifier: =
readout.value: 0.0488

mutation.string: G61U U71A G86A
readout.type: nonsense suppression
modifier: ≤
readout.value: 0.026

mutation.string: C12U U35C
readout.type: nonsense suppression
modifier: =
readout.value: 0.0352

mutation.string: G67A C80U
readout.type: nonsense suppression
modifier: =
readout.value: 0.0261

mutation.string: U55C U76A
readout.type: nonsense suppression
modifier: =
readout.value: 0.15

mutation.string: A9C A13G
readout.type: nonsense suppression
modifier: =
readout.value: 0.0462

mutation.string: C5G G25C G69C
readout.type: nonsense suppression
modifier: ≤
readout.value: 0.026

mutation.string: A31U G59C
readout.type: nonsense suppression
modifier: ≤
readout.value: 0.026

mutation.string: G15C C56A
readout.type: nonsense suppression
modifier: ≤
readout.value: 0.026

mutation.string: U55C C77A
readout.type: nonsense suppression
modifier: =
readout.value: 0.0479

mutation.string: A24U G85U
readout.type: nonsense suppression
modifier: =
readout.value: 0.0597

mutation.string: C5A A60G
readout.type: nonsense suppression
modifier: =
readout.value: 0.0265

mutation.string: U17G A54U
readout.type: nonsense suppression
modifier: =
readout.value: 1.16

mutation.string: A13C A62G
readout.type: nonsense suppression
modifier: =
readout.value: 0.0702

mutation.string: C27U A74C
readout.type: nonsense suppression
modifier: =
readout.value: 0.0355

mutation.string: G73A G88U
readout.type: nonsense suppression
modifier: =
readout.value: 0.0757

mutation.string: U8A A60C G73U A87C
readout.type: nonsense suppression
modifier: ≤
readout.value: 0.026

mutation.string: U22A C75A A89C
readout.type: nonsense suppression
modifier: ≤
readout.value: 0.026

mutation.string: A13G C29A
readout.type: nonsense suppression
modifier: =
readout.value: 0.03

mutation.string: C5G G7U C11G
readout.type: nonsense suppression
modifier: ≤
readout.value: 0.026

mutation.string: G7A U20G
readout.type: nonsense suppression
modifier: ≤
readout.value: 0.026

mutation.string: G7U U21A G78A C79A
readout.type: nonsense suppression
modifier: ≤
readout.value: 0.026

mutation.string: A62G C75U C83A
readout.type: nonsense suppression
modifier: ≤
readout.value: 0.026

mutation.string: A31U C75A
readout.type: nonsense suppression
modifier: =
readout.value: 0.758

mutation.string: A9G A74C
readout.type: nonsense suppression
modifier: =
readout.value: 0.0286

mutation.string: G25U G28U C29G C72G C81A
readout.type: nonsense suppression
modifier: ≤
readout.value: 0.026

mutation.string: U20A G61U
readout.type: nonsense suppression
modifier: =
readout.value: 0.217

mutation.string: U22C A54U
readout.type: nonsense suppression
modifier: =
readout.value: 1.05

mutation.string: C56G G78C
readout.type: nonsense suppression
modifier: ≤
readout.value: 0.026

mutation.string: G10C A54U
readout.type: nonsense suppression
modifier: ≤
readout.value: 0.026

mutation.string: A30U A31U
readout.type: nonsense suppression
modifier: =
readout.value: 0.035

mutation.string: A9U C12G U35G C72A
readout.type: nonsense suppression
modifier: ≤
readout.value: 0.026

mutation.string: C12U U76C
readout.type: nonsense suppression
modifier: =
readout.value: 0.818

mutation.string: C5A A60C
readout.type: nonsense suppression
modifier: =
readout.value: 0.0331

mutation.string: G61A C68G
readout.type: nonsense suppression
modifier: =
readout.value: 0.0366

mutation.string: A60C A62U
readout.type: nonsense suppression
modifier: =
readout.value: 0.0785

mutation.string: C3A U20G G28U U57C G61C A74U G78C C79A
readout.type: nonsense suppression
modifier: ≤
readout.value: 0.026

mutation.string: G25U G73U
readout.type: nonsense suppression
modifier: ≤
readout.value: 0.026

mutation.string: A13C U17G C82U
readout.type: nonsense suppression
modifier: =
readout.value: 0.142

mutation.string: C3U C80U
readout.type: nonsense suppression
modifier: =
readout.value: 0.0737

mutation.string: A9U U57G G65C
readout.type: nonsense suppression
modifier: ≤
readout.value: 0.026

mutation.string: G28A C81U
readout.type: nonsense suppression
modifier: =
readout.value: 1.2

mutation.string: U17C G28A G61C
readout.type: nonsense suppression
modifier: =
readout.value: 0.716

mutation.string: U63A C72U
readout.type: nonsense suppression
modifier: =
readout.value: 0.133

mutation.string: G73A G84C
readout.type: nonsense suppression
modifier: =
readout.value: 0.361

mutation.string: C5A G78C
readout.type: nonsense suppression
modifier: ≤
readout.value: 0.026

mutation.string: U22G G28U A62U G73U
readout.type: nonsense suppression
modifier: ≤
readout.value: 0.026

mutation.string: C29U U57A U63G
readout.type: nonsense suppression
modifier: ≤
readout.value: 0.026

mutation.string: C12G U71G
readout.type: nonsense suppression
modifier: =
readout.value: 0.859

mutation.string: U16C U21A U22G
readout.type: nonsense suppression
modifier: =
readout.value: 0.861

mutation.string: C27A C34G A60U C77U
readout.type: nonsense suppression
modifier: ≤
readout.value: 0.026

mutation.string: U8C G65A C72U
readout.type: nonsense suppression
modifier: ≤
readout.value: 0.026

mutation.string: C64G C72U
readout.type: nonsense suppression
modifier: ≤
readout.value: 0.026

mutation.string: G78C
readout.type: nonsense suppression
modifier: =
readout.value: 0.202

mutation.string: G15A
readout.type: nonsense suppression
modifier: =
readout.value: 0.188

mutation.string: U8A G67C U71G
readout.type: nonsense suppression
modifier: ≤
readout.value: 0.026

mutation.string: U55C C75G
readout.type: nonsense suppression
modifier: =
readout.value: 1.16

mutation.string: C75G G78C
readout.type: nonsense suppression
modifier: =
readout.value: 0.361

mutation.string: C12A A89G
readout.type: nonsense suppression
modifier: ≤
readout.value: 0.026

mutation.string: C3A C12G G18U U20G G61U U70G C75G
readout.type: nonsense suppression
modifier: ≤
readout.value: 0.026

mutation.string: G6A G7U A54C
readout.type: nonsense suppression
modifier: ≤
readout.value: 0.026

mutation.string: A31U G85A
readout.type: nonsense suppression
modifier: =
readout.value: 0.164

mutation.string: U2C G6U C29U
readout.type: nonsense suppression
modifier: ≤
readout.value: 0.026

mutation.string: G19C A23C C56G G85U
readout.type: nonsense suppression
modifier: ≤
readout.value: 0.026

mutation.string: G59C A60C U71G G78A
readout.type: nonsense suppression
modifier: ≤
readout.value: 0.026
